test: Fluorescence spectra of labeling compounds; type: physicochemical; details: 10% DMSO in water
// reported Fluorescence spectra λex per item
Report only the number, with the unit nm understood.

These recorded examples may help you get a feel for the data.
>  <COMPOUND>
CC[N+]1=C(C=CC=CC=CC=C2N(CCCCCC(=O)NN)c3ccc4ccccc4c3C2(C)C)C(C)(C)c2c1ccc1ccccc21 [Compound 9]

>  <Fluorescence spectra λex / nm>
771

$$$$
>  <COMPOUND>
CC[N+]1=C(C=CC=CC=CC=C2N(CCCCCC(=O)ON3C(=O)CCC3=O)c3ccc4ccccc4c3C2(C)C)C(C)(C)c2c1ccc1ccccc21 [Compound 6]

>  <Fluorescence spectra λex / nm>
769

$$$$
>  <COMPOUND>
CC[N+]1=C(C=CC=CC=CC=C2N(CCCCCC(=O)ON3C(=O)CC(S(=O)(=O)O)C3=O)c3ccc4ccccc4c3C2(C)C)C(C)(C)c2c1ccc1ccccc21 (stereo not shown) [Compound 7]

>  <Fluorescence spectra λex / nm>
769

$$$$

Would you kindly look at the next entry?
Entry CC[N+]1=C(C=CC=CC=CC=C2N(CCCCCC(=O)N3CCN(CCN4C(=O)C=CC4=O)CC3)c3ccc4ccccc4c3C2(C)C)C(C)(C)c2c1ccc1ccccc21 [Compound 8] has what Fluorescence spectra λex?
773

* * *

Consider the following molecules and their measured Fluorescence spectra λem readings.
assay: Fluorescence spectra of labeling compounds; format: physicochemical; details: 10% DMSO in water
Write it as a number; the unit nm goes unstated.

>  <MOLECULE>
CC[N+]1=C(C=CC=CC=CC=C2N(CCCCCC(=O)NN)c3ccc4ccccc4c3C2(C)C)C(C)(C)c2c1ccc1ccccc21 [Compound 9]

>  <UNIT>
nm

>  <Fluorescence spectra λem>
820

$$$$
>  <MOLECULE>
CC[N+]1=C(C=CC=CC=CC=C2N(CCCCCC(=O)N3CCN(CCN4C(=O)C=CC4=O)CC3)c3ccc4ccccc4c3C2(C)C)C(C)(C)c2c1ccc1ccccc21 [Compound 8]

>  <UNIT>
nm

>  <Fluorescence spectra λem>
821

$$$$
>  <MOLECULE>
CC[N+]1=C(C=CC=CC=CC=C2N(CCCCCC(=O)ON3C(=O)CCC3=O)c3ccc4ccccc4c3C2(C)C)C(C)(C)c2c1ccc1ccccc21 [Compound 6]

>  <UNIT>
nm

>  <Fluorescence spectra λem>
820

$$$$

Here is another molecule to look at.
Name the recorded Fluorescence spectra λem for CC[N+]1=C(C=CC=CC=CC=C2N(CCCCCC(=O)ON3C(=O)CC(S(=O)(=O)O)C3=O)c3ccc4ccccc4c3C2(C)C)C(C)(C)c2c1ccc1ccccc21 (stereo not shown) [Compound 7] .
820
